# Test system: 705 TSC2+
# Construct: TSC2 add-back
# experiment_summary: cells
# Parameters: cell proliferation by crystal violet staining, absorbance 540 nm
# condition_parameters: 72 h
test_readout: pIC50
Answers are plain numbers, as −log10 of the molar value.

Q: Param request: pIC50 | system 705 TSC2+ | item CC(C)n1nc(-c2ccc3oc(N)nc3c2)c2c(N)ncnc21
Result: 7.30

###

# Test system: KTP-267-1B1 Tsc1-
# Construct: Tsc1-null
# experiment_summary: cells
# Set-up: cell proliferation by crystal violet staining, absorbance 540 nm
# condition_parameters: 72 h
test_readout: pIC50
Answers are plain numbers, as −log10 of the molar value.

Q: Consider the molecule CC(C)n1nc(-c2ccc3oc(N)nc3c2)c2c(N)ncnc21 and give its recorded pIC50.
Result: 7.35

Origin of the recorded values: paper PMC10617776
